Listing of recorded glass transition temperature by entry.

*c1ccc(C(F)(F)C(*)(F)F)cc1 (repeat unit) ... 77.0 °C
*CCCNC(=O)O* (repeat unit) ... 26.00 °C
*CCCOCCCCOCCCN1C(=O)c2ccc(C(=O)Oc3ccc(OC(=O)c4ccc5c(c4)C(=O)N(*)C5=O)cc3)cc2C1=O (repeat unit) ... 56.00 °C
*CCN(CCOC(=O)c1ccc(C(=O)O*)c(OCCC)c1)c1ccc(C=C(C#N)C#N)cc1 (repeat unit) ... 94.00 °C
*c1ccc(C(=O)Nc2ccc(Oc3ccc(NC(=O)c4ccc(Oc5ccc(-c6nn(*)c(=O)c7ccccc67)c6ccccc56)cc4)cc3)cc2)cc1 (repeat unit) ... 317.50 °C
*Nc1cccc(NC(=O)c2cc(NC(=O)C34CC5CC(CC(C5)C3)C4)cc(C(*)=O)c2)c1 (repeat unit) ... 365.00 °C
*CC(*)c1ccc(C(=O)OCC(C)C)cc1 (repeat unit) ... 90.00 °C
*Oc1cccc2ccc(Oc3ccc(NC(=O)c4ccc(Oc5ccc(C(C)(C)c6cccc(C(C)(C)c7ccc(Oc8ccc(C(=O)Nc9ccc(*)cc9)cc8)cc7)c6)cc5)cc4)cc3)cc12 (repeat unit) ... 139.00 °C
*OC1C(COCO)OC(*)C(O)C1O (repeat unit) ... 208.00 °C
*Oc1ccc(C(=O)Nc2ccc(Cc3ccc(NC(=O)c4ccc(Oc5ccc(C(=O)c6ccc(S(=O)(=O)c7ccc(C(=O)c8ccc(*)cc8)cc7)cc6)cc5)cc4)cc3)cc2)cc1 (repeat unit) ... 240.00 °C

# input compound: */C=C(\C#N)C(=O)NC1CCCCC1NC(=O)/C(C#N)=C/c1ccc(/C=C/c2ccc(N(CC)Cc3ccccc3CN(CC)c3ccc(/C=C/c4ccc(*)s4)cc3)cc2)s1 (repeat unit) ; wanted: its glass transition temperature 195.00 °C

# iterate: *Cc1ccccc1[Si](*)(c1ccccc1)c1ccccc1 (repeat unit) 122.00 °C

# iterate: *CC(COc1ccc(C(C)(C)c2ccc(O*)cc2)cc1)OC(=O)CC (repeat unit) 60.00 °C

# iterate: *c1ccc2c(c1)C(=O)N(c1ccc(OC(CCC)COc3ccc(N4C(=O)c5ccc(C(*)(C(F)(F)F)C(F)(F)F)cc5C4=O)cc3)cc1)C2=O (repeat unit) 204.00 °C

# iterate: *CCCCCCOP(=O)(/N=N/c1ccc(Oc2ccc(/N=N/P(=O)(O*)OC)cc2)cc1)OC (repeat unit) 25.00 °C

---

quantity-measured: glass transition temperature (°C)
Express your answer in °C, writing the number without its unit.

Recorded results for 4 compounds are shown here.
*Oc1c(F)c(F)c(-c2c(F)c(F)c(Oc3ccc(C(c4ccc(*)cc4)(C(F)(F)F)C(F)(F)F)cc3)c(F)c2F)c(F)c1F (repeat unit) ... 167.00
*c1ccc2c(c1)C(CCCCCC)(CCCCCC)c1cc(-c3ccc4c(c3)c3cc(*)ccc3n4-c3ccc(C)cc3)ccc1-2 (repeat unit) ... 155.00
*Oc1ccc(/N=C/C=N/c2ccc(OC(=O)NC3CC(C)(C)CC(C)(CNC(*)=O)C3)cc2)cc1 (repeat unit) ... 62.00
*C(=O)c1ccc(N(*)C)cc1 (repeat unit) ... 197.00

# input compound: *c1cc(C(=O)OCCCCCC)cc(N2C(=O)CC(C3Cc4ccccc4C4C(=O)N(*)C(=O)C43)C2=O)c1 (repeat unit) ; wanted: its glass transition temperature 187.00

# iterate: *c1ccc(Oc2ccc(C(c3ccc(Oc4ccc(-c5ncc(*)o5)cc4C(F)(F)F)cc3)(C(F)(F)F)C(F)(F)F)cc2)c(C(F)(F)F)c1 (repeat unit) 205.00

# iterate: *O[Si](*)(C)CCCCCCCCCCC(=O)Oc1ccc(C(=O)Oc2ccc(-c3ccc(OC(=O)CCCCC(=O)OC4CC(C)CCC4C(C)C)cc3)cc2)cc1 (repeat unit) 32.40

# iterate: *Oc1cc(OC(=O)c2ccc(OCCCC)cc2)c(OC(=O)C(C)(C)CCC(*)=O)cc1OC(=O)c1ccc(OCCCC)cc1 (repeat unit) 61.00

# iterate: *c1ccc(Oc2ccc(Oc3ccc(-c4nc(*)nc(-c5ccccc5)n4)cc3)cc2)cc1 (repeat unit) 244.00

The reported numbers originate from the PolyMetriX glass transition set.
